# System: A498 renal
# Experiment Summary: NCI-60 one-dose screen, 48 h
# Condition Notes: 10 µM unless noted
This is part of a sample that, as a whole, favours compounds with a hit. Of some 83,000 tested, about 20% had one in any assay. Activity calls are given as the source filed them. How the source made its calls: active means growth percent below 10; inactive means the rest.
Pick from label 1 = active, label 0 = inactive when you respond.

Would you please look over these solved cases?
CCCCCCCCCCCCCC1=NC(C)(C)CN1C(C)C | label 0
CCN(CC)CCCCCCCCNc1c2ccc(Cl)cc2nc2ccc(OC)cc12 | label 1

So what was the verdict on `c1csc(-c2cnc3nonc3n2)c1` in this test?
label 0

How about this compound: `Cc1cc(C#Cc2ccc(C(C)(C)C)cc2)ccc1-n1c(/C=C/c2c(Cl)cccc2Cl)nc2ccccc2c1=O`
label 0

How about this compound: `COc1cc(OC)c2sc(-c3ccc(-n4cncc4-c4ccc(OC)c(N)c4)cc3)nc2c1`
label 0

How about this compound: `COc1cccc(NC(=O)OC(C)C)c1`
label 0

====

# Tested on: MDA-MB-231 breast
# Experiment Summary: NCI-60 one-dose screen, 48 h (100 = growth as untreated, 0 = no growth, -100 = all killed)
# Condition Notes: 10 µM unless noted
The panel holds about 83,000 compounds, 20% with a hit somewhere; the sample as a whole holds those more often.
Measured Endpoint: growth (%)
Numbers only; they are read as %.

Cc1cc([N+](=O)[O-])c(C)cc1N | 90.3

Given the compound `Cc1c(C(=O)CCl)c(=O)n(-c2ccccc2)n1C` , what is its reported growth?
97.7

How about this compound: CC(C)(C)c1nn(-c2ccccc2)c2c1C(=O)CSC(c1ccc3c(c1)OCO3)N2 (stereo not given)
98.6

How about this compound: CC(C)(C)[Si](C)(C)OC1[C@@H](O[Si](C)(C)C(C)(C)C)[C@@H](CNC(=O)NC(=O)NC(=O)CCl)O[C@H]1n1cnc2c(NC(=O)Nc3ccccc3)ncnc21 (stereo not given in full)
-28.3

How about this compound: `O=C1/C(=C/c2cc(F)cc(F)c2)Cc2cc(F)cc(F)c21`
95.1

====

# System: K-562 leukemia
# Experiment Summary: NCI-60 one-dose screen, 48 h (100 = growth as untreated, 0 = no growth, -100 = all killed)
# Condition Notes: 10 µM unless noted
Compounds without any hit were thinned out: in the full panel of roughly 83,000, 20% have a hit. Calls of active or inactive are those of the source. Rule for the calls: active = growth percent below 10; inactive = the rest.
Overview of reported growth across a group of compounds:

O=C(Nc1ccc(-n2ccc3c(NC(=O)c4ccccc4)nccc32)cc1)c1ccc(N2CCOCC2)c(C(F)(F)F)c1 | 17.4% (inactive)
N/C(=C\C(=O)n1nc(-c2ccccc2)cc1N)c1ccccc1 | 25.6% (inactive)
Cc1ccc(C)c2c1SC1=NNC(Oc3ccc(Cl)cc3)=C(C#N)C(=N)N12 | 95.1% (inactive)
O=C1C=CN2C(=O)CC=CC2[C@@H]1O (stereo not given in full) | 109% (inactive)

Given the compound `COc1cccc(-c2cc(-c3cccs3)c(C#N)c(=O)[nH]2)c1` , what is its reported growth?
102% (inactive)

How about this compound: `O=C(Nc1ccc(Br)cc1)c1ccc(Cl)c(Cl)c1`
12.9% (inactive)

How about this compound: CC1=CC(=O)OC1C/C=C(\C)CCC1[C@@]2(C)CCC[C@@](C)(C(=O)O)C2CC[C@@]1(C)O (stereo not given in full)
28.4% (inactive)

How about this compound: `Cc1c(C(=O)Nc2ccccc2F)sc2c(=O)[nH]cnc12`
47.4% (inactive)

How about this compound: `CC(C)N(C(=S)SSC(=S)N(C(C)C)C(C)C)C(C)C`
73.3% (inactive)

How about this compound: `COC(=O)c1ccc2c(c1)nc(-c1cc3ccccc3[nH]c1=O)n2-c1cc(C(C)(C)C)[nH]n1`
32.2% (inactive)

====

# Tested on: NCI-H522 lung
# Experiment Summary: NCI-60 one-dose screen, 48 h
# Condition Notes: 10 µM unless noted
Compounds without any hit were thinned out: in the full panel of roughly 83,000, 20% have a hit. Active and inactive are the calls of the source. How the source made its calls: active means growth percent below 10; inactive means the rest.
Pick from class 1 (active), class 0 (inactive) when you respond.

O=c1oc2ccccc2cc1-c1cc(-c2ccc(-c3cc(-c4cc5ccccc5oc4=O)nc(-c4cc5ccccc5oc4=O)c3)cc2)cc(-c2cc3ccccc3oc2=O)n1 | class 0
CS(=O)(=O)c1ccc(C(=O)N/N=C/c2ccccc2O)cc1 | class 0
COc1cccc(/C=N\Nc2ccc([N+](=O)[O-])cn2)c1O | class 0
CCOC(=O)Nc1ccc2nc(Sc3ccc(Cl)cc3)sc2c1 | class 0
C#CCNc1nc(NCCNC(=O)CCl)nc(N(C)CCCCc2ccccc2)n1 | class 0

Please turn your attention to the following entry.
So what was the verdict on `NS(=O)(=O)c1ccc(CCn2c(SCC(=O)N/N=C/c3cccnc3)nc3ccccc3c2=O)cc1` in this test?
class 0

====

Overview of reported growth across a group of molecules:
# Tested on: OVCAR-4 ovarian
# Experiment Summary: NCI-60 one-dose screen, 48 h (100 = growth as untreated, 0 = no growth, -100 = all killed)
# Condition Notes: 10 µM unless noted
Compounds without any hit were thinned out: in the full panel of roughly 83,000, 20% have a hit.
Numbers only; they are read as %.

The following molecules have reported results that may help.
N/C(=N\OC(=O)c1ccccc1)C(Cc1ccccc1)C(=O)NOC(=O)c1ccccc1 (stereo not given) | 66.8
CN1CCCN(CCNc2nccc(-c3c(-c4cccc(O)c4)nc4sccn34)n2)S1(=O)=O | 51.5
O=C1OC(/C=C/c2ccccc2)=NC/1=C/c1ccccc1[N+](=O)[O-] | 94.2
CCCCCCCCCCCC1=NC(C)(C)CN1CCO | 72.6
CC(SC(C)C(=O)N/N=C/c1cccc(Cl)c1)C(=O)N/N=C\c1cccc(Cl)c1 (stereo not given) | -11.1
CC(=O)Nc1ccc(/C=N/N2CCCCCC2)cc1 | 99.1

Given the molecule COc1ccc(C(=O)N2N=C(c3ccc(F)cc3)CC2c2cn(-c3ccccc3)nc2-c2ccccc2)cc1 (stereo not given) , what is its reported growth?
68.2

How about this molecule: COc1ccc(C2NC(=O)c3cc4c(cc3N2)OCO4)cc1 (stereo not given)
59.5

How about this molecule: CC1=CC(=O)OC1C/C=C(\C)CCC1[C@@]2(C)CCC[C@@](C)(C(=O)O)C2CC[C@@]1(C)O (stereo not given in full)
75.5

How about this molecule: `COc1cc2c(=O)n(CCCN(C)C)c3c4cc[nH]c4ncc3c2cc1OC`
34.7

====

Overview of reported growth across a group of molecules:
# System: U251 CNS
# Experiment Summary: NCI-60 one-dose screen, 48 h (100 = growth as untreated, 0 = no growth, -100 = all killed)
# Condition Notes: 10 µM unless noted
This is part of a sample that, as a whole, favours compounds with a hit. Of some 83,000 tested, about 20% had one in any assay.
Numbers only; they are read as %.

CCN(CC)c1cc(C)c(Cc2c(OC)ccc3ccccc23)cc1C | 94.9
Brc1ccsc1Br | 109
CN1C(=O)N(C)C2C1NN=c1s/c(=C\c3ccc(Br)cc3)c(=O)n12 (stereo not drawn) | 29.3

Given the molecule `CC(=O)Oc1c(Cl)c(Cl)c(Cl)c(Cl)c1Cl` , what is its reported growth?
94.7

How about this molecule: `COc1cc(OC)cc(-c2ccc(-c3ccc(C(=N)N)s3)s2)c1`
-90.1

How about this molecule: `COc1cc(OC)c(Cl)cc1N`
104

====

# Tested on: NCI/ADR-RES ovarian
# Experiment Summary: NCI-60 one-dose screen, 48 h (100 = growth as untreated, 0 = no growth, -100 = all killed)
# Condition Notes: 10 µM unless noted
This is part of a sample that, as a whole, favours compounds with a hit. Of some 83,000 tested, about 20% had one in any assay.
Measured Endpoint: growth (%)
Numbers only; they are read as %.

The following compounds have reported results that may help.
c1cc2c(cc1-c1cnc3nonc3n1)OCO2 | 93.2
C=C1C(=O)O[C@H]2[C@H]1CC/C(COC(=O)N[C@@H](Cc1c[nH]c3ccccc13)C(=O)OC)=C\CC[C@@]1(C)O[C@@H]21 | 88.2
CCCCCCCOc1cccc(/C=C2\N=C3SCCCN3C2=O)c1 | 97
COc1ccc(/C=C/c2nc(NCCCN(C)C)c3ccccc3n2)cc1 | 87.9

Recall the recorded growth for COc1ccc(C2NC(=O)c3cc4c(cc3N2)OCO4)cc1 (stereo not given) with NCI/ADR-RES ovarian and state it.
3.94

====

# Test system: NCI-H322M lung
# Experiment Summary: NCI-60 one-dose screen, 48 h
# Condition Notes: 10 µM unless noted
About 83,000 compounds went through this panel and 20% of them were active in at least one assay; those are over-represented in the sample as a whole. Activity calls are given as the source filed them. How the source made its calls: active means growth percent below 10; inactive means the rest.
Pick from 1.0 = active, 0.0 = inactive when you respond.

Would you please look over these solved cases?
CCCCCCCC/C=C\CCCCCCCC(=O)OCCCCCC | 0.0
COc1ccc(/C(C)=N/NC(=O)CSc2nc3ccccc3c(=O)n2CCc2ccc(S(N)(=O)=O)cc2)cc1 | 0.0
CCN(CC)Cc1cc(Nc2ccnc3ccc(OC)cc23)ccc1O | 0.0
CCNC(=O)c1ccc2c(c1)nc(-c1ccc(Cl)cc1)n2-c1cc(C(C)(C)C)[nH]n1 | 0.0
Clc1nnc2c3ccccc3ccn12 | 0.0
CN1C(=O)NC(Cc2c[nH]c3c(Cl)cccc23)C1=O (stereo unspecified) | 0.0

So what was the verdict on `CC(C)CCSc1nc(-c2ccc(F)cc2)c(C#N)c(N2CCCCC2)n1` in this test?
0.0

How about this molecule: `CS(=O)(=O)c1ccc(C(=O)N/N=C/c2ccccc2O)cc1`
0.0

How about this molecule: `Cc1ccc2c(C)c3c(ccc4ccccc43)c[n+]2c1`
0.0

How about this molecule: S=C(Nc1ccc(Cl)cc1)Nc1ccc(Cl)cc1 (tested in a mixture with another compound)
1.0

How about this molecule: `NC(N)=N/N=C/c1ccc(Cl)cc1`
0.0
